Recorded Ranking, Compet. data values for a group of binders are listed next.
Tgt: T1, human LAG-3 expressed on cells (human, UniProt P18627 23-525)
T1 construct: whole, on cells; Treated as one protein; the host cell is named under assay; also called LAG-3-expressing CHO cells; LAG-3-transfected CHO cells
T1 sequence (looked up): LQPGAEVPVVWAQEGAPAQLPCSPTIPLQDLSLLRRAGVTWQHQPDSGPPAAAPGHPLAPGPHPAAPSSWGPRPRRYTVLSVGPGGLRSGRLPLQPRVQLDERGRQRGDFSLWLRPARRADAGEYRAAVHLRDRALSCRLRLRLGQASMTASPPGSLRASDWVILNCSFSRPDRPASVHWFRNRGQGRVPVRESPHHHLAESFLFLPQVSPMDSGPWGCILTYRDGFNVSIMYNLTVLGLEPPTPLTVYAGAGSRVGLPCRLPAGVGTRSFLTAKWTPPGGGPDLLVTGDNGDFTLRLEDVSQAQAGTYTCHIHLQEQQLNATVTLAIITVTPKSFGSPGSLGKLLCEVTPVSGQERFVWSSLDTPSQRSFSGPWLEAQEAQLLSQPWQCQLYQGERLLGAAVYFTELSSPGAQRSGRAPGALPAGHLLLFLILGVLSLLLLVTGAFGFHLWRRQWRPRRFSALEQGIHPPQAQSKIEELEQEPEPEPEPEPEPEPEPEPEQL
Assay details: rank of the clone by the competition binding data (test mAb against FITC-labeled murine BAP050 on LAG-3-expressing CHO cells), curve position relative to the chimeric mAb in two experiments
Response field accepts a number only; no unit should be typed.

Solved cases (2 shown):
[
  {
    "Binder": "BAP050-hum11 (antibody, human IgG4 S228P, kappa, V domains shown, humanized IgG4(S228P)/kappa, transient CHO supernatant; also called humanized clone No. 11) VH: QVQLVQSGAEVKKPGASVKVSCKASGFTLTNYGMNWVRQARGQRLEWIGWINTDTGEPTYADDFKGRFVFSLDTSVSTAYLQICSLKAEDTAVYYCARNPPYYYGTNNAEAMDYWGQGTTVTVSS VL: DIQMTQSPSSLSASVGDRVTITCSSSQDISNYLNWYLQKPGQSPQLLIYYTSTLHLGVPSRFSGSGSGTEFTLTISSLQPDDFATYYCQQYYNLPWTFGQGTKVEIKR",
    "Reported property": "Ranking, Compet. data",
    "Observed measurement": 2
  },
  {
    "Binder": "BAP050-hum13 (antibody, human IgG4 S228P, kappa, V domains shown, humanized IgG4(S228P)/kappa, transient CHO supernatant; also called humanized clone No. 13) VH: QVQLVQSGAEVKKPGASVKVSCKASGFTLTNYGMNWVRQAPGQGLEWMGWINTDTGEPTYADDFKGRFVFSLDTSVSTAYLQICSLKAEDTAVYYCARNPPYYYGTNNAEAMDYWGQGTTVTVSS VL: DIQMTQSPSSLSASVGDRVTITCSSSQDISNYLNWYQQKPGKAPKLLIYYTSTLHLGIPPRFSGSGYGTDFTLTINNIESEDAAYYFCQQYYNLPWTFGQGTKVEIKR",
    "Reported property": "Ranking, Compet. data",
    "Observed measurement": 3
  }
]

In: Requested read-out: Ranking, Compet. data. Entry: BAP050-hum09 (antibody, human IgG4 S228P, kappa, V domains shown, humanized IgG4(S228P)/kappa, transient CHO supernatant; also called humanized clone No. 09) VH: QVQLVQSGAEVKKPGASVKVSCKASGFTLTNYGMNWVRQARGQRLEWIGWINTDTGEPTYADDFKGRFVFSLDTSVSTAYLQICSLKAEDTAVYYCARNPPYYYGTNNAEAMDYWGQGTTVTVSS VL: DIQMTQSPSSLSASVGDRVTITCSSSQDISNYLNWYQQKPGKAPKLLIYYTSTLHLGIPPRFSGSGYGTDFTLTINNIESEDAAYYFCQQYYNLPWTFGQGTKVEIKR
Out: 2

From: patent US20180340025A1
